Test system: SF-295 CNS
Assay: NCI tumour cell line growth inhibition, 48 h; in the data active = GI50 below about 0.43 µM; inactive = the rest
*1 amine or outer side, *2 acyl side, *3 side chain or, on linkers, in order; H or OH if unused. Where a SMILES comes first, the peptide text is derived from it. Bridges are numbered along the chain shown (N, C = ends). [ ]: non-standard residue; d: D form. The star is where a group is joined. Phe(3,5-F2) = N[C@@H](Cc1cc(F)cc(F)c1)C(=O)O; Pro(4R-Me) = C[C@H]1CN[C@H](C(=O)O)C1; aThr = C[C@H](O)[C@H](N)C(=O)O; Pip = O=C(O)[C@@H]1CCCCN1; X10 = Fc1cc(C2CC2)ccc1N*; Abu = CC[C@H](N)C(=O)O; CO = O=C([*:1])[*:2]
Outcome codes: t (active), f (inactive)

compound=COc1ccc(CN2C(=O)C(Cl)=C(Nc3cccc(O)c3)C2=O)cc1 assayed_target="SF-295 CNS" label_value=f
compound=Cc1cc(Nc2ncc(F)c(N[C@H]3[C@@H](C(N)=O)[C@@H]4C=C[C@H]3C4)n2)ccc1N1CCN(C)CC1 assayed_target="SF-295 CNS" label_value=t
compound=CCCCCCCCCCCC[C@H](O)[C@H]1CC[C@H]([C@H](O)CCCC[C@H](O)CCCCC[C@@H](O)CC2=C[C@H](C)OC2=O)O1 assayed_target="SF-295 CNS" label_value=f
compound=Oc1c(Cl)cc(Cl)c2ccc(Cn3cc(-c4cc(F)cc(F)c4)nn3)nc12 assayed_target="SF-295 CNS" label_value=f
compound=Cc1nc2ccccc2c(/C=C/c2ccc(Cl)cc2)c1C(=O)/C=C/c1ccc(F)cc1 assayed_target="SF-295 CNS" label_value=f
compound="CC(=O)OC1Oc2ccc(C)cc2-c2oc(=O)c(-c3cc4ccccc4oc3=O)cc21 (configuration not stated)" assayed_target="SF-295 CNS" label_value=f
compound=COc1cccc2cc(N(C)c3ncnc4ccccc34)ccc12 assayed_target="SF-295 CNS" label_value=t
compound=c1ccc(CSc2nnc3c4c5c(sc4nc(-c4cccnc4)n23)CCCCCC5)cc1 assayed_target="SF-295 CNS" label_value=f
compound="CC[C@@H]1NC(=O)[C@@H]2CCCCN2C(=O)[C@@H]2CCCN2C(=O)[C@@H](NC(=O)[C@H](Cc2cc(F)cc(F)c2)NC(=O)Nc2ccc(C3CC3)cc2F)[C@H](C)OC(=O)[C@@H]2C[C@@H](C)CN2C1=O ({X10-CO}-[Phe(3,5-F2)][aThr]P[Pip][Abu][Pro(4R-Me)]; ester 2-C)" assayed_target="SF-295 CNS" label_value=t
compound=O=C(Nc1ccc(Oc2cccc(Cl)c2)c(Cl)c1)c1cnccn1 assayed_target="SF-295 CNS" label_value=f
compound=COc1cnc2c(c1)C(=O)c1c-2n(CCCBr)c(=O)c2cc([N+](=O)[O-])ccc12 assayed_target="SF-295 CNS" label_value=t
compound=ClC1=C(Cl)C(Cl)=C(Cl)C1=Cc1ccccc1 assayed_target="SF-295 CNS" label_value=f

Where do the numbers come from? From PubChem BioAssay (NCI).
